# Target Or Test System: ScPex13
# Assay Protocol: SPOT peptide array binding signal intensity (averaged, normalized) (arbitrary units (background-subtracted, floor 0; scale differs between SH3 domains)); higher = stronger binding of the SH3 domain to the peptide
Each entry below lists one item and its recorded SPOT peptide array binding signal intensity value.
Give the value as a plain number.

Some solved entries appear below for comparison.
* ALFRLSFFFPLDPAY | 116
* MKRSRPSRSIPYTTP | 10
* KDKSRPPRPPPKPLH | 103
* EVTPKVPERPSRRKT | 1490
* IFLRISINFPLNYPN | 516
* PKRRAPPPVPKKPSS | 560
* NLPKRKPPKLQGPFS | 2
* PLQSKIPMLPSRRTM | 945
* PSTMDFPKLPSFQNS | 221
* SNRRPVPRRPSQPLN | 377

Reported SPOT peptide array binding signal intensity ( GAGERPRLVPRPINV ) = 1

Entry ILARAILTIPRVLDK — recorded SPOT peptide array binding signal intensity = 59.2

Query RTIRKLPLMSLSEYF yields SPOT peptide array binding signal intensity of 54.2

The binder identified as RPVPRRPSQPLNTLS registered its SPOT peptide array binding signal intensity at 1420
